test: Clearance in female Beagle dog at 4 mg/kg,iv measured upto 24 hrs; type: ADME, organism-based, Canis lupus familiaris; conditions: in vivo
quantity_name: clearance (mL/min/kg)
The reply should be a number in mL/min/kg, with the unit left off.

q: Entry `CC(=O)O[C@@]12CO[C@@H]1C[C@H](O)[C@@]1(C)C(=O)[C@H](O)C3=C(C)[C@@H](OC(=O)[C@H](OC(=O)CCC(=O)NCCCC[C@H](NC(=O)CC[C@@H](NC(=O)[C@H](C)NC(=O)/C=C/c4ccc(F)cc4Cl)C(N)=O)C(=O)O)[C@@H](NC(=O)OC(C)(C)C)c4ccccc4)C[C@@](O)([C@@H](OC(=O)c4ccccc4)[C@H]21)C3(C)C` has what clearance?
a: 3.85
